From: patent US20180057596A1

Give measured Ki for each item. Keep answers brief.
SYSTEM_TESTED: T1, cynomolgus IL4Rα/Fc HIS6 (HEK expressed) (cynomolgus monkey)
T1 construct: also called Cyno IL4R; cynomolgus IL-4Rα HIS Fc (in house HEK-EBNA derived); not shown: HIS6 tag
ASSAY_COMMENT: HTRF receptor-ligand assay, purified scFv against biotinylated cynomolgus IL4
Output should be the measured figure followed by the unit it is expressed in.

Some binders with known Ki results, for comparison:
Antibody 42 scFv (scFv, V domains shown, tested as purified scFv) VH: QVQLVQSGAEVKKPGASVKVSCKASGYAFTSYYMHWARQAPGQGLEWVGIINPSGGSTSYAQKFQGRVTMTRDTSTSTVYMELSSLRSGDTAVYYCARGKYWMYDWGKGTLVTVSS VL: QAVLTQPPSVSAAPGQKVTISCSGGSSNIGNSYVSWYQRLPGAAPKLLIYDNNKRPSGIPDRFSGSKSGTSATLAITGLQTGDEADYYCGTWDTSTGWEWPFGTGTKLTVL : 2.5 nM
Antibody 6 scFv (scFv, V domains shown, tested as purified scFv) VH: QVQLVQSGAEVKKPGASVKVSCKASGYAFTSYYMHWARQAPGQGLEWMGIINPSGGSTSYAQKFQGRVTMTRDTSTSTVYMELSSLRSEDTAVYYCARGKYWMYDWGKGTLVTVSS VL: QSVLTQPPSVSAAPGQKVTISCSGGSSNIGNSYVSWYQQLPGTAPKLLIYDNNKRPSGIPDRFSGSKSGTSATLAITGLQTGDEADYYCGTWDTSTTYHPIFGTGTKLTVL : 3.5 nM
Antibody 11 scFv (scFv, V domains shown, tested as purified scFv) VH: QVQLVQSGAEVKKPGASVKVSCKASGYAFTSYYMHWARQAPGQGLEWMGIINPSGGSTSYAQKFQGRVTMTRDTSTSTVYMELSSLRSEDTAVYYCARGKWWFYDWGKGTLVTVSS VL: QSVLTQPPSVSAAPGQKVTISCSGGSSNIGNSYVSWYQQLPGTAPKLLIYDNNKRPSGIPDRFSGSKSGTSATLAITGLQTGDEADYYCGTWDTSPSMIPLFGTGTKLTVL : 26.1 nM

Look at each binder and report its Ki.
1. Antibody 21 scFv (scFv, V domains shown, tested as purified scFv) VH: QVQLVQSGAEVKKPGASVKVSCKASGYAFTSYYMHWARQAPGQGLEWMGIINPSGGSASYAQKFQGRVTMTRDTSTSTVYMELSSLRSEDTAVYYCARGKYWMYDWGKGTLVTVSS VL: QSVLTQPPSVSAAPGQKVTISCSGGSSNIGNSYVSWYQQLPGTAPKLLIYDNNKRPSGIPDRFSGSKSGTSATLAITGLQTGDEAVYFCGTWDTSTVWEWPFGTGTKLTVL
2. Antibody 31 scFv (scFv, V domains shown, tested as purified scFv) VH: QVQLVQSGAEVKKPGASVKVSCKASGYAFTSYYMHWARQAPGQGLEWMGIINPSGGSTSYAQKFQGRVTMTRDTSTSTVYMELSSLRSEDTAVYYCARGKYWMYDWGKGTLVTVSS VL: QSVLTQPPSVSAAPGQKVTISCSGGSSSIGNSYVSWYQQLPGTAPKLLIYDNNKRPSGIPDRFSGSKSGTSATLAITGLQTGDEADYYCGTWATSPVWEWPFGTGTKLTVL

["1 nM", "2.2 nM"]
